biological target: Gag-Pol polyprotein [484-582,Q491K,I497V,V499I,E519D,R541K,D544E,L547P,Q553K,A555V,G557S,I568V,L573M,L574M] (Human immunodeficiency virus, UniProt Q9QBY3, A555V/D544E/E519D/G557S/I497V/I568V/L547P/L573M/L574M/Q491K/Q553K/R541K/V499I); construct: 484-582; assay: HIV-1 protease inhibition assay; settings: pH 4.7; 25 °C
Could you please report measured pKi for the items listed next?
Numbers only, as −log10 of the molar value.

Use these answered entries as a reference point.
CCC(CC)CN(C[C@@H](O)[C@H](Cc1ccccc1)NC(=O)O[C@H]1CO[C@H]2OCC[C@H]21)S(=O)(=O)c1ccc(OC)cc1; 9.87
CC[C@H](C)CN(C[C@@H](O)[C@H](Cc1ccccc1)NC(=O)O[C@H]1CO[C@H]2OCC[C@H]21)S(=O)(=O)c1ccc(CO)cc1; 11.40

Read the next record carefully.
### Prompt Report pKi for `CCC(CC)CN(C[C@@H](O)[C@H](Cc1ccccc1)NC(=O)O[C@H]1CO[C@H]2OCC[C@H]21)S(=O)(=O)c1ccc2c(c1)OCO2` please.
### Response 9.98
